Listed here are compounds together with their documented ED50.
Measured on: mu receptor (Mus musculus)
Construct: Five CF-1 male mice (Charles River, Portage, Mich.); from tissue; host or cells: whole living CF-1 male mice (in vivo)
Sequence (P42866 whole entry): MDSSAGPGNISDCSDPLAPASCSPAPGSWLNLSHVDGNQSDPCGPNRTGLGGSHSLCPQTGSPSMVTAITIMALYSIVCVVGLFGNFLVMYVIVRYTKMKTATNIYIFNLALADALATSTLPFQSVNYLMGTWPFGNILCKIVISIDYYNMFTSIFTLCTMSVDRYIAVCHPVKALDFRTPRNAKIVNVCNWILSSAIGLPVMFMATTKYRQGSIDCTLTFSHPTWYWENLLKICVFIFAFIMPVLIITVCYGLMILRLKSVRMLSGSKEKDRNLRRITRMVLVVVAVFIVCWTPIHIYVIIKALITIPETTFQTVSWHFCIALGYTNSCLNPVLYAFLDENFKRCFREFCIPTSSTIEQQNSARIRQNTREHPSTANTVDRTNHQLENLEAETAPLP
Experiment: Mouse writhing assay, antagonism of morphine analgesia (mu)
Assay type: in vivo, CF-1 male mice
Study conditions: sc, read-out: Mu AD50
Counter-ions that a name gives are not always drawn.
# unit: mg/kg | format: bare number

Use these answered entries as a reference point.
Compound: COC(CCN1CC[C@@](C)(c2cccc(O)c2)[C@@H](C)C1)C1CCCCC1 (relative stereo) [Example 31, hydrochloride]
Property label: ED50
Value: 1.42
//
Compound: C[C@H]1CN(CCC(O)C2CCCC2)CC[C@@]1(C)c1cccc(O)c1 (relative stereo) [Example 18, hydrochloride]
Property label: ED50
Value: 0.04
//
Compound: CC(C)CCCCN1CCC(C)(c2cccc(O)c2)C(C)C1 (stereo not shown) [Example 4, hydrochloride]
Property label: ED50
Value: 0.35

Read the next record carefully.
Input: Which value of ED50 has been reported for CC1CN(CCCC2CCCCC2)CCC1(C)c1cccc(O)c1 (stereo not shown) [Example 11, hydrochloride] in the records?
Output: 0.19
